# TESTED_SYSTEM: RARα (Homo sapiens)
# Construct: gal4 (fusion partner); expressed in transfected cells; host or cells: COS-7
# Sequence (P10276 183-417 limits assumed, species assumed): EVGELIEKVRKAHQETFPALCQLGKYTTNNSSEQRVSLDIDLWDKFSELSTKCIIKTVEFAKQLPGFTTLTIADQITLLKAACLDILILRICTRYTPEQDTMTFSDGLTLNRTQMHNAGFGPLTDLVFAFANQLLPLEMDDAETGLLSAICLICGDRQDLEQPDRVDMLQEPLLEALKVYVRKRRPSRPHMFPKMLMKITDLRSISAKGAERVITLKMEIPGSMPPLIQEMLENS
# PROTOCOL_TEXT: Transactivation assay for RAR alpha (gal4-RAR fusion, luciferase reporter, COS-7 cells)
# Assay type: cell-based
# EXPERIMENTAL_CONTEXT: compared with XXX-03
# Improvement (RARα/RARβ ratio) values compiled below

Sample answers from the record:
# MOLECULE, Improvement (RARα/RARβ ratio)
rows = [
    ("CC(C)Oc1c(Cl)cc(C(=O)Nc2ccc(C(=O)O)cc2)cc1Cl [AAA-004]", "~29-fold"),
    ("CCOc1c(Cl)cc(C(=O)Nc2ccc(C(=O)O)c(C)c2)cc1Cl [AAA-019]", "~12-fold"),
    ("COc1c(Cl)cc(C(=O)Nc2ccc(C(=O)O)cc2)cc1Cl [AAA-030]", "~46-fold"),
]

// next item, Improvement (RARα/RARβ ratio) requested
Task: Could you share which Improvement (RARα/RARβ ratio) value was measured for CCOc1c(Cl)cc(C(=O)Nc2ccc(C(=O)O)cc2)cc1Cl [AAA-029] ?
Output: ~11-fold

The reported numbers originate from patent US9447028B2.
